Every entry's value here was drawn from patent US4457936A.

Here the recorded IC50 is given for each entry.
biological target: prolyl hydroxylase (Homo sapiens); experiment: enzyme test, hydroxylation of insufficiently hydroxylated collagen by prolyl hydroxylase (cell-free); format: biochemical; settings: concentration at which the enzyme reaction is inhibited by 50%; first part of Table; read-out: DI50 propyl-hydroxylase
Sequence (P13674 18-534): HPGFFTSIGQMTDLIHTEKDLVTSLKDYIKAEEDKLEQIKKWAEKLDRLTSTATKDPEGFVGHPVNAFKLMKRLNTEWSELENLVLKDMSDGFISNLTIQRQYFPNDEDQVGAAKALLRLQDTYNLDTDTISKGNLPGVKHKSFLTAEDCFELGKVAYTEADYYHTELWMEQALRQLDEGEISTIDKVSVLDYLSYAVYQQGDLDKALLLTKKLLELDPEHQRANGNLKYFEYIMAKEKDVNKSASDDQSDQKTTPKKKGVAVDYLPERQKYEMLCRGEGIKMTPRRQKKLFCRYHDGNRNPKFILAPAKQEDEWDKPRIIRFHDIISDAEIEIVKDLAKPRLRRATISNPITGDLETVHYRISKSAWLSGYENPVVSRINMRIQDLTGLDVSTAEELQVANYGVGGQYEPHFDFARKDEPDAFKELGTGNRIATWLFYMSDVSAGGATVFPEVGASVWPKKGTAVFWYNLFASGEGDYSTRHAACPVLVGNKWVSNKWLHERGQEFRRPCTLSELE
Sequence (P07237 18-508 partner): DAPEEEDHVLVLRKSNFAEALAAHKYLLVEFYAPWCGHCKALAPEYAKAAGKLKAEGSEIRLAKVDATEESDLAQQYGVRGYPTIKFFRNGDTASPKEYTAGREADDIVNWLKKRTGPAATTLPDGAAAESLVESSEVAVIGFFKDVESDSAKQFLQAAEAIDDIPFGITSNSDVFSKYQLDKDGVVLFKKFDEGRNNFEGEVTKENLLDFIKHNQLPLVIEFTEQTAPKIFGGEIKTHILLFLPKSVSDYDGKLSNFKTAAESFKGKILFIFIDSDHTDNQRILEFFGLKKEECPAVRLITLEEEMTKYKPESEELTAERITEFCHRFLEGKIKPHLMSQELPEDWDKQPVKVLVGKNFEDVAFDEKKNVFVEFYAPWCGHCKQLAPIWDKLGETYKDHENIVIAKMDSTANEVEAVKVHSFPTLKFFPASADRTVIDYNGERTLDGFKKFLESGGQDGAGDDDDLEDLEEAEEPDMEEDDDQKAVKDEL

Record excerpt, results attached:
O=C(O)[C@@H]1CSC(c2cc([N+](=O)[O-])ccc2O)N1 (stereo partly drawn): 50 to 100 µM
O=C(O)[C@@H]1CSC(c2cc(Br)cc(Br)c2O)N1 (stereo partly drawn): 50 to 100 µM

Shift focus to the following entry.
(Q) // fetch prolyl hydroxylase (Homo sapiens) IC50 for O=C(O)[C@@H]1CSC(c2cc(Cl)cc(Cl)c2O)N1 (stereo partly drawn)
(A) 50 to 100 µM

---

target: lysyl hydroxylase (Homo sapiens); assay: enzyme test, hydroxylation of insufficiently hydroxylated collagen by lysyl hydroxylase (cell-free); format: biochemical; details: second part of Table, column L (circled); read-out: DI50 L.circle.
Sequence (Q02809 19-727): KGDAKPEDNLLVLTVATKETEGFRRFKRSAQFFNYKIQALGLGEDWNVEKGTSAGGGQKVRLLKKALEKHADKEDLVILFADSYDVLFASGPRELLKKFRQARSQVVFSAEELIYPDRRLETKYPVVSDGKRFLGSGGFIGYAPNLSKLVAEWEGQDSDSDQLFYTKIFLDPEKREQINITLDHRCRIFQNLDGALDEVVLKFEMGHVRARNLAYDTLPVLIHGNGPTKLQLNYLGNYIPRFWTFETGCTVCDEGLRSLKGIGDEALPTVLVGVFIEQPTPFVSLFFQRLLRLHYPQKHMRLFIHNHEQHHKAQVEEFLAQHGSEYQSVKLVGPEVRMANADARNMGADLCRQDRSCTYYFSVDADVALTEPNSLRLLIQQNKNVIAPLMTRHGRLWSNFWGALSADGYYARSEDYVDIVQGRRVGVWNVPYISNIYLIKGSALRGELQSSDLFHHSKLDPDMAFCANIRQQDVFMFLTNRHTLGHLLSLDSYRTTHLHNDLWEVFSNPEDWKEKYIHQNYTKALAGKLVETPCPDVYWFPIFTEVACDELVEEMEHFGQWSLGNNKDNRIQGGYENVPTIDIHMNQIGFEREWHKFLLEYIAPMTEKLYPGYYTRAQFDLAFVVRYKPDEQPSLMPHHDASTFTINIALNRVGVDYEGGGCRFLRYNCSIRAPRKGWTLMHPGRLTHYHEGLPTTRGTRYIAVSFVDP
Here the recorded pIC50 is given for each entry.
Lab note — pIC50 values are minus log10 of concentrations in M.

Record excerpt, results attached:
O=C(O)c1csc(-c2cc(Cl)c3ccccc3c2O)n1: 4.50
Cc1ccc(O)c(-c2nc(C(=O)O)c(C(=O)O)s2)c1: 3.84

(Q) // fetch lysyl hydroxylase (Homo sapiens) pIC50 for O=C(O)c1nc(-c2ccc(O)cc2O)sc1-c1ccccc1
(A) 4.68
